Source: paper PMC9942873

- assay_system: recombinant full-length Pfs48/45 (Plasmodium falciparum 3D7, UniProt Q8I6T1)
- Sequence (Q8I6T1 28-428): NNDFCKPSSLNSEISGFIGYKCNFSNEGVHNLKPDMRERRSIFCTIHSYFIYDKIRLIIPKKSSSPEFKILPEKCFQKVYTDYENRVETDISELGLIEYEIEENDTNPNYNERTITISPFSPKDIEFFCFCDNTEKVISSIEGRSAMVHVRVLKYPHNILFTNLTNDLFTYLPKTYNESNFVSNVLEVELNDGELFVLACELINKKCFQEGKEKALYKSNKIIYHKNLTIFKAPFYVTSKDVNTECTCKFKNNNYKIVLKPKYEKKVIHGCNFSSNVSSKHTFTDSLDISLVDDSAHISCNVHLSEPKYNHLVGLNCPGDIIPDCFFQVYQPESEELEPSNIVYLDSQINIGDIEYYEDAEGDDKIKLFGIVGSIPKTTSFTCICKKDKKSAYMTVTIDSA
- assay_text: ELISA
- condition_description: both partners purified

| binder | binding result |
| --- | --- |
| RUPA-25 (antibody, V domains shown, human IgG1; source: recombinant human IgG1, 293T (Protein A purified) or GenScript) VH: QVQLVQSGAEVKKPGASVKVSCTASGYNFLTHDISWVRQATGQGLEWMGWMNPNTGKKGYVQKFQGRVTMDRDMSKSTAYMELRSLTSEDTAVYYCVRGVGSYYGSGGWFDPWGQGTLVTVSS VL: QPVLTQPPSASETPGQKVTISCSGSSSNIGSDTVSWYVQLPGTAPKLLIYNDNQRPSGVPDRFSGSKSGTSASLAISGLQSEDEADYYCATWDASLKRRVFGGGTTLTVL | binds |
